systemUnderTest: T1, secretory phospholipase A2 (sPLA2) (Homo sapiens, UniProt P14555 P14555:21-144)
T1 sequence: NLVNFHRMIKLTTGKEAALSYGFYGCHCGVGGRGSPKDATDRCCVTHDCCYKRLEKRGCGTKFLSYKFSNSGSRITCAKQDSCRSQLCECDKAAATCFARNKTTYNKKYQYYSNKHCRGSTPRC
assayMethodText: filter; biphasic, Kd2 82 nM, mole fraction 0.60; TBSC with 5 mM CaCl2, 37 C
recordedConditions: tags: supplied by Eli Lilly
assayReadout: pKd
pKd is defined as minus the log10 of a concentration measured in mol/L.

Consider the binder 71 (ssRNA) RNA: GGGAGCUCAGAAUAAACGCUCAAUCUCAUGCUCGUCGCACGGCGUAACCUAUUUCGACAUGAGGCCCGGAUCCGGC . State its measured pKd. 8.89
